B1: UBN1(92–175) [human] / H3.3/H4 [human | X. laevis] (parent complex)
chain 1: NDEEKERHKVEALARKFEEKYGGKKRRKDRIQDLIDMGYGYDESDSFIDNSEAYDELVPASLTTKYGGFYINSGTLQFRQASES
chain 2: not shown
chain 3: not shown

Variants of: B1
experiment: fluorescence polarization competition binding; 10 nM FITC-UBN1(127–148), 6.5 μM H3.3/H4; 20 mM HEPES pH 7.5, 750 mM NaCl, 1 mM TCEP; parent: 1.66e+04 nM
Output true for records whose IC50 is lower than 20 µM, false for records at or above 20 µM.

{"columns": ["variant.description", "label.value"],
 "data": [
  ["chain 1 I31A", "true"],
  ["chain 1 D55A", "false"],
  ["chain 1 E52A", "false"],
  ["chain 1 G38A", "false"]
]}

Strictly below 20 µM in IC50? chain 1 S46A
true

Next entry: chain 1 M37A
false

Entry chain 1 I35A please
true

Query chain 1 Y54A next
true
